- System: MOLT-4 leukemia
- assay procedure: NCI tumour cell line growth inhibition, 48 h
parameter measured: TGI

INSERT INTO results (molecule, parameter_measured, measured_value) VALUES
  ('COc1ccc(/C=N/n2cnc3c(c2=O)S/C(=C2/SC(=S)N(c4ccc(C)cc4)C2=O)N3c2ccccc2)cc1', 'TGI', '> 10 µM'),
  ('COc1ccc(-c2nn(-c3cccc(Cl)c3)cc2-c2c(C#N)c(=O)n3[nH]c(-c4ccc(C)cc4)nc3c2C#N)cc1', 'TGI', '5.46 µM'),
  ('CCO/C=C1\N=C(C(Cl)c2ccccc2)OC1=O (stereo not given)', 'TGI', '> 100 µM');

Given CCCCCCCCCCCCCCCCCCOc1ccc(/C=C/C2=[N+](CCCl)CCO2)cc1 , state its recorded TGI.
> 100 µM

Given COc1ccc2c(c1)CCc1[nH]nc(-c3cc(OC)c(OC)c(OC)c3)c1-2 , state its recorded TGI.
> 100 µM
